Molecular target: 25DKG-Rase (Corynebacterium sp.)
Construct: The enzyme is an intracellular enzyme extracted from the cells of the 2KLG producing strain; made in house; host or cells: natural producer Corynebacterium sp; No. 20A-77 mutant FERM-BP 108, enzyme purified from sonicated cells; not recombinant
Assay: Spectrophotometric enzymatic activity (decrease in absorption at 340 nm), purified enzyme solution of Example 1
Assay type: biochemical, Corynebacterium sp. No. 20A-77 mutant (FERM-BP 108)
Details: NADPH, 0.1M TB pH 7, 30° C.
reported property: reductive activity (in words)

[[record]]
compound_string = "O=C(O)C(=O)[C@@H](O)[C@H](O)C(=O)CO"
reported_property = "reductive activity (in words)"
value_reported = "shows a high activity"

[[record]]
compound_string = "O=C(CO)[C@@H](O)[C@H](O)C(=O)CO"
reported_property = "reductive activity (in words)"
value_reported = "shows a high activity"


====

Molecular target: 25DKG-Rase (Corynebacterium sp. SHS752001, UniProt P15339)
Sequence (P15339 whole entry): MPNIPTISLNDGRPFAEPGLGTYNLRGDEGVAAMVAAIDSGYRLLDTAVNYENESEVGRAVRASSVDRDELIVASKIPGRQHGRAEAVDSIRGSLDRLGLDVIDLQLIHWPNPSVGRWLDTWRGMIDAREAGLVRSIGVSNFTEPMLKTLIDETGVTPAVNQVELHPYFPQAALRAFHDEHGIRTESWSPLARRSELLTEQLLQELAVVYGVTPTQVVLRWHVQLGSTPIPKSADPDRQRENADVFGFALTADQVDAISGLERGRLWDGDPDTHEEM
Test: Action, substrate specificity and Km of the purified 25DKG-Rase (general description)
Assay type: biochemical, genus Corynebacterium
Settings: in the presence of NADPH
reported property: specificities for substrates (reducing action)

[[record]]
compound_string = "O=C(CO)[C@@H](O)[C@H](O)C(=O)CO"
value_reported = "shows specificities"

[[record]]
compound_string = "O=C(O)C(=O)[C@@H](O)[C@H](O)C(=O)CO"
value_reported = "shows specificities"


====

I'd appreciate it if you could supply Activity of the purified enzyme solution (1 ml) values for the items below.
Target: 25DKG-Rase (Corynebacterium sp., UniProt P15339)
Construct: The enzyme is an intracellular enzyme extracted from the cells of the 2KLG producing strain; made in house; host or cells: natural producer Corynebacterium sp; No. 20A-77 mutant FERM-BP 108, enzyme purified from sonicated cells; not recombinant
Sequence (P15339 2-277 limits assumed): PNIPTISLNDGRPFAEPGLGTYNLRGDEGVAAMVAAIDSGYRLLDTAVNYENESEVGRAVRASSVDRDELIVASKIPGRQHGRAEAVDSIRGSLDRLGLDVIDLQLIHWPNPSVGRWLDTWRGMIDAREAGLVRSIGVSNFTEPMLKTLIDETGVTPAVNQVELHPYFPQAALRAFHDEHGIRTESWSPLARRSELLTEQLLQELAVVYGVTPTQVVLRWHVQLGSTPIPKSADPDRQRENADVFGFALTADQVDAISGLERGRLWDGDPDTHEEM
Assay: Spectrophotometric enzymatic activity (decrease in absorption at 340 nm), purified enzyme solution of Example 1
Assay type: biochemical, Corynebacterium sp. No. 20A-77 mutant (FERM-BP 108)
Settings: NADPH, 0.1M TB pH 7, 30° C.
Numbers only, in units.

As a guide, the following entries are already answered.
[[record]]
compound = "O=C(O)C(=O)[C@@H](O)[C@H](O)C(=O)CO [Ca-25DKG]"
value_reported = 54

[[record]]
compound = "O=C(O)C(=O)[C@@H](O)[C@H](O)[C@H](O)CO [Ca-2-keto-D-gluconate]"
value_reported = 0

[[record]]
compound = "O=C(CO)[C@@H](O)[C@H](O)[C@@H](O)CO [L-sorbose]"
value_reported = 0

[[record]]
compound = "O=C(CO)[C@@H](O)[C@H](O)C(=O)CO [5KF, 5-keto-D-fructose]"
value_reported = 94

[[record]]
compound = "O=C(CO)[C@@H](O)[C@H](O)[C@H](O)CO [D-fructose]"
value_reported = 0


Please go through the list and note Activity of the purified enzyme solution (1 ml) for each compound.
1. O=C(CO)[C@@H](O)[C@H](O)[C@@H](O)C(=O)O [K-5-keto-gluconate]
2. O=C(O)C(=O)[C@@H](O)[C@H](O)[C@@H](O)CO [Na-2KLG]

[reply]
[0, 0]

====

System: 25DKG-Rase derived from Strain T-13
Assay: Substrate specificity by product formation, enzyme from T-13
Type: biochemical, Corynebacterium sp. No. T-13 (ATCC 31,089)
reported property: product formed (substrate specificity)

As a guide, the following entries are already answered.
[[record]]
molecule = "O=C(O)C(=O)[C@@H](O)[C@H](O)[C@@H](O)CO [2KLG, 2-keto-L-gulonic acid]"
value_reported = "None was produced"

[[record]]
molecule = "O=C(CO)[C@@H](O)[C@H](O)[C@@H](O)C(=O)O [5-keto-D-gluconic acid]"
value_reported = "None was produced"

[[record]]
molecule = "O=C(CO)[C@@H](O)[C@H](O)[C@H](O)CO [D-fructose]"
value_reported = "None was produced"

[[record]]
molecule = "O=C(O)C(=O)[C@@H](O)[C@H](O)[C@H](O)CO [2-keto-D-gluconic acid]"
value_reported = "None was produced"


[ask] Query (molecule): O=C(CO)[C@@H](O)[C@H](O)[C@@H](O)CO [L-sorbose] ; field requested: product formed (substrate specificity)
[reply] None was produced
